system: MDA-MB-435 melanoma; experiment: NCI-60 one-dose screen, 48 h; details: 10 µM unless noted
This is part of a sample that, as a whole, favours compounds with a hit. Of some 83,000 tested, about 20% had one in any assay. Calls of active or inactive are those of the source. Rule for the calls: active = growth percent below 10; inactive = the rest.
Response enum: YES (active), NO (inactive)

q: Just curious, what result did Fc1cccc(NCOOC2(OOCNc3cccc(F)c3)CCCCC2)c1 get here?
a: NO

q: Do the same for O[C@H](CN1CC1)[C@@H](O)CN1CC1 please
a: NO

q: Do the same for COc1cc(C=C2c3ccccc3C(=O)c3ccccc32)ccc1OCCCCOc1cc2c(cc1OC)C(=O)N1CCCC1C=N2 (stereo unspecified) please
a: YES

q: Do the same for Clc1cccc(Cl)c1Cl please
a: NO

q: Do the same for CN1CCC(O)(c2ccc(F)cc2)C(C(=O)c2ccc(F)cc2)C1 (stereo unspecified) please
a: NO

q: Do the same for CC[C@H](C)[C@H](NC(=O)C12C3C4C1C1C2C3C41NC)C(=O)N(C)[C@H](C[C@@H](OC(C)=O)c1nc(C(=O)N[C@@H](Cc2ccccc2)C[C@H](C)C(=O)OC)cs1)C(C)C (stereo partly specified) please
a: YES

q: Do the same for O=C(CCl)c1ccc([N+](=O)[O-])o1 please
a: YES

q: Do the same for Cc1cc(C)cc(Nc2nc3c(s2)CC[C@@]2(C)C3=CC[C@@H]3[C@@H]2CC[C@]2(C)C(=O)CC[C@@H]32)c1 please
a: NO

q: Do the same for Nc1nnnc2nc[nH]c12 please
a: YES

q: Do the same for COc1ccc(C(=O)c2cc(OC)c(OC)c(OC)c2)cc1OC(C)=O please
a: YES

q: Do the same for C=CCCCCCCCCC(=O)[O-].C=CCCCCCCCCC(=O)[O-].[Zn+2] please
a: NO

----------
test system: SK-OV-3 ovarian; assay: NCI-60 one-dose screen, 48 h; conditions: 10 µM unless noted
Compounds without any hit were thinned out: in the full panel of roughly 83,000, 20% have a hit. The source made the active and inactive calls. The calls were made as follows: active = growth percent below 10; inactive = the rest.
Response enum: active, inactive

q: Just curious, what result did O=C1C2C(C(=O)[N]1[Hg][c]1ccccc1)C1(Cl)C(Cl)=C(Cl)C2(Cl)C1(Cl)Cl (configuration not stated) get here?
a: inactive

q: Do the same for CCCCCN(CCCCC)CC(O)c1cc(Cl)ccc1OC (configuration not stated) please
a: inactive

q: Do the same for COc1ccc(/C=C\c2cc(OC)c(OC)c(OC)c2)c(NS(=O)(=O)c2ccc(F)cc2)c1O please
a: inactive

q: Do the same for O=C(CC1(O)C(=O)N(Cc2ccccc2)c2ccccc21)c1ccc(C(=O)NCC2CCC3(CC2)OOC2(CCCCC2)OO3)cc1 (configuration not stated) please
a: inactive

q: Do the same for CCOC(=O)[C@@H](C)C[C@H](Cc1ccccc1)NC(=O)c1csc([C@@H](C[C@H](C(C)C)N(C)C(=O)[C@H](CC)NC(=O)[C@H]2CCCCN2C)OC(C)=O)n1 please
a: inactive

q: Do the same for CC1=C([Te]c2ccc(O)cc2)C(=O)c2ccccc2C1=O please
a: active

q: Do the same for COc1cc(/C=C\c2cc(OC)c(OC)c(OC)c2)cc(N/C=C\C(=O)c2cc(OC)c(OC)c(OC)c2)c1OC please
a: inactive

q: Do the same for O=C(CC1(O)C(=O)N(Cc2ccccc2)c2ccc(F)cc21)c1ccc(C(=O)NCC2CCC3(CC2)OOC2(CCCCC2)OO3)cc1 (configuration not stated) please
a: inactive

q: Do the same for Cc1cc(N(CCCl)CCCl)ccc1/C=N\NC(=O)c1ccncc1 please
a: inactive

q: Do the same for CCOC(=O)[C@@H](C)C[C@H](Cc1ccccc1)NC(=O)c1csc([C@@H](C[C@H](C(C)C)N(C)C(=O)[C@H](CCC(C)C)NC(=O)[C@H]2CCCCN2C)OC(C)=O)n1 please
a: active

q: Do the same for CC(=O)Nc1nc2c(s1)CC[C@@]1(C)C2=CC[C@H]2[C@@H]3CC[C@H](O)[C@@]3(C)CC[C@@H]21 please
a: inactive

q: Do the same for COC(=O)[C@@H](NC(=O)c1cn(CCC2CCCCC2)c2ccccc12)C(C)(C)C please
a: inactive

q: Do the same for Brc1ccc2c(c1)c(-c1nc(-c3c[nH]c4ncccc34)cs1)cn2CCN1CCCCC1 please
a: inactive

q: Do the same for COc1cc([C@@H]2c3cc4c(cc3[C@H](OC(C)=O)[C@H]3COC(=O)[C@@H]23)OCO4)cc(OC)c1OC please
a: active

q: Do the same for CCC(=O)Nc1ccc(Cl)c(Cl)c1 please
a: inactive

q: Do the same for CC12CCC(O)CC1=CCC1C2CCC2(C)C(O)CCC12 (configuration not stated) please
a: inactive

q: Do the same for C=C1C(=O)O[C@H]2[C@H]1CC/C(COC(=O)C(=O)c1cn(Cc3ccccc3)c3ccccc13)=C\CC[C@@]1(C)O[C@@H]21 please
a: inactive

q: Do the same for CC(C)(C)N1CC1C#N (configuration not stated) please
a: inactive

q: Do the same for CC(=O)OCc1cc[c]([Hg][Cl])o1 please
a: inactive

q: Do the same for CCCCCCCC[N+](C)(CCCCCCCC)CCCCCCCC please
a: active

q: Do the same for CC[C@H](C)[C@H](NC(=O)c1ccccn1)C(=O)N(C)[C@H](C[C@@H](OC(C)=O)c1nc(C(=O)N[C@@H](Cc2ccccc2)C[C@H](C)C(=O)OC)cs1)C(C)C please
a: inactive

q: Do the same for COC(=O)[C@@H](C)C[C@H](Cc1ccccc1)NC(=O)c1csc([C@@H](C[C@H](C(C)C)N(C)C(=O)[C@@H](NC(=O)[C@H]2CCCCN2C)c2ccc(F)cc2)OC(C)=O)n1 please
a: inactive

q: Do the same for COc1cc(NC(C)CCCNC2CN3CCC2CC3)c2ncccc2c1 (configuration not stated) please
a: inactive

q: Do the same for O=[N+]([O-])c1cc([N+](=O)[O-])c(Nn2c3ccccc3c3ccccc32)c([N+](=O)[O-])c1 please
a: active

q: Do the same for CC(=O)O[C@@H]1CC[C@]2(C)[C@H]3CC[C@]4(C)C(=O)CC[C@H]4[C@@H]3C[C@@H]3SC(N)=N[C@@]32C1 please
a: inactive

q: Do the same for COc1ccc(C(O)(C(=O)O)c2ccc(OC)cc2)cc1 please
a: inactive

q: Do the same for Cn1cccc1C1CC(=O)N(CCC[Se]C#N)C1=O (configuration not stated) please
a: active

----------
Give growth for every item shown.
test system: MALME-3M melanoma; experiment: NCI-60 one-dose screen, 48 h (100 = growth as untreated, 0 = no growth, -100 = all killed); conditions: 10 µM unless noted
This is part of a sample that, as a whole, favours compounds with a hit. Of some 83,000 tested, about 20% had one in any assay. Activity calls are given as the source filed them. The calls were made as follows: active = growth percent below 10; inactive = the rest.

q: Returns the measured growth for the input molecule. Input: O=[N+]([O-])c1ccc([Se]C2CCCCC2Cl)c([N+](=O)[O-])c1 (stereo not given)
a: 69.8% (inactive)

q: Do the same for O=C(Nc1ccc(O)cc1)C(Cl)(Cl)Cl please
a: 96.8% (inactive)

q: Do the same for COc1ccc2c(c1)c(-c1nc(-c3c[nH]c4ncccc34)cs1)cn2CCN1CCOCC1 please
a: 71% (inactive)

q: Do the same for CC[C@H](C)[C@H](NC(=O)[C@H]1CCCCN1C)C(=O)N(C)[C@H](CCc1nc(C(=O)N[C@@H](Cc2ccccc2)C[C@H](C)C(=O)OC)cs1)C(C)C please
a: 65.4% (inactive)

q: Do the same for CCCCCCCC(=O)OCC(=O)[C@]1(O)Cc2c(O)c3c(c(O)c2[C@@H](OC2CC(N)C(O)C(C)O2)C1)C(=O)c1c(OC)cccc1C3=O (stereo not given in full) please
a: -70.7% (active)

q: Do the same for Nc1ccc2c(c1)Cc1cc(Br)ccc1-2 please
a: 118% (inactive)

q: Do the same for C=CC[Se]C(=O)c1ccccc1OC(C)=O please
a: 30.9% (inactive)

q: Do the same for O=C1C2CCC1C(N1CCCC1)CC2 (stereo not given) please
a: 94.7% (inactive)

q: Do the same for COC(=O)CCc1c[nH]c2ccc(N(CCCl)CCCl)cc12 please
a: 71% (inactive)

q: Do the same for CCCCNC(c1ccc(Cl)cc1)C(O)c1ccc(Cl)cc1 (stereo not given) please
a: 39.7% (inactive)

----------
system: HCT-116 colon; test: NCI-60 one-dose screen, 48 h (100 = growth as untreated, 0 = no growth, -100 = all killed); conditions: 10 µM unless noted
Compounds without any hit were thinned out: in the full panel of roughly 83,000, 20% have a hit.
Threshold check on growth: strictly below 30% is satisfied; on or above 30% is not satisfied.

q: Is growth strictly under 30% for the entry CN1CC(=O)N(O)C1(C)c1cccnc1 (stereo not drawn) ?
a: not satisfied

q: Do the same for COC(=O)[C@@H](C)C[C@H](Cc1ccc(F)cc1)NC(=O)c1csc([C@@H](C[C@H](C(C)C)N(C)C(=O)[C@@H](NC(=O)[C@H]2CCCCN2C)C(C)C)OC(C)=O)n1 please
a: satisfied

q: Do the same for Nc1c(F)cc(-c2nc3cc(F)ccc3[se]2)cc1Br please
a: satisfied

q: Do the same for CC(C)COC(C[N+](=O)[O-])C(Cl)(Cl)Cl (stereo not drawn) please
a: not satisfied

q: Do the same for COc1ccc(/C=C\c2cc(OC)c(OC)c(OC)c2)cc1NC(=O)/C=C/c1cc(OC)c(OC)c(OC)c1 please
a: not satisfied

q: Do the same for C[C@]12CC[C@@H]3c4ccc(Oc5nc(N6CC6)nc(N6CC6)n5)cc4CC[C@H]3[C@@H]1CCC2=O please
a: satisfied

q: Do the same for COc1ccc(S(=O)(=O)Nc2c(/C=C\c3cc(OC)c(OC)c(OC)c3)ccc(OC)c2O)cc1OC please
a: satisfied

q: Do the same for CNC(=O)Oc1ccc(C(C)(C)C)cc1OC(=O)NC please
a: not satisfied
